- TEST_PROTOCOL: physchem
- CONDITION_DETAILS: pH 7.4 buffer
Classify as follows. Reported solubility thermodynamic greater than or equal to 200 µM: Satisfied. Reported solubility thermodynamic below: Not satisfied.

Field: example entries. Status: answers known.
{"SMILES_STR": "O=C(NNC(=O)c1ccccc1)c1ccccc1", "GROUP": "Not satisfied"}
{"SMILES_STR": "Cc1c[nH]c(-c2cnc(NCCNc3ccc(C#N)cn3)nc2-c2ccc(Cl)cc2Cl)n1", "GROUP": "Not satisfied"}
{"SMILES_STR": "CC(=O)c1noc(C)c1C(=O)Nc1nccs1", "GROUP": "Not satisfied"}
{"SMILES_STR": "COc1ccc(Cn2c(CCc3c[nH]c4ccccc34)nnc2[C@@H](Cc2c[nH]c3ccccc23)NC(=O)C2CCNCC2)c(OC)c1", "GROUP": "Satisfied"}
{"SMILES_STR": "COc1ccc(NC(=O)c2cccn(CC=C(C)C)c2=O)cc1", "GROUP": "Not satisfied"}
{"SMILES_STR": "COc1ccc(NC(=O)c2ccccn2)cc1", "GROUP": "Satisfied"}
{"SMILES_STR": "Cc1cccc(-c2ccc3c(c2)c(C(=O)C(=O)O)cn3Cc2ccc(C(C)(C)C)cc2)c1", "GROUP": "Satisfied"}
{"SMILES_STR": "CN(C)CCNS(=O)(=O)c1ccc(Nc2nccc(-c3cnc4cccnn34)n2)cc1", "GROUP": "Not satisfied"}

Please tell me: is the molecule COc1cc(N2CCN(C(C)=O)CC2)ccc1Nc1ncc(C(F)(F)F)c(-c2cnc3ccccn23)n1 at or over 200 µM in terms of solubility thermodynamic?
Not satisfied

Please indicate if the recorded solubility thermodynamic for COc1cc2c(Nc3ccc(Cl)cc3F)ncnc2cc1OCCn1ccnn1 meets or exceeds 200 µM.
Not satisfied

* * *

- TEST_PROTOCOL: in vitro
- CONDITION_DETAILS: human, plasma, PPB
Kindly return 1 (yes) if reported fraction unbound at 5 h is no lower than 0.01; return 0 (no) if it is lower.

As a guide, the following entries are already answered.
{"MOLECULE": "CC(C)NCC(O)COc1ccc(CCOCC2CC2)cc1 (centres undefined)", "GROUP": "1 (yes)"}
{"MOLECULE": "CCCCNC(=O)c1ccc(Oc2ccc(CC(=O)O)cc2OC)c(NS(=O)(=O)c2ccc(Cl)cc2Cl)c1", "GROUP": "0 (no)"}
{"MOLECULE": "CC(=O)NCc1cccc(C(=O)O)c1", "GROUP": "1 (yes)"}
{"MOLECULE": "COc1ccc([C@]2(C#N)CC[C@@H](C(=O)O)CC2)cc1OC1CCCC1", "GROUP": "1 (yes)"}
{"MOLECULE": "CSc1ccc2c(c1)N(CCC1CCCCN1C)c1ccccc1S2 (centres undefined)", "GROUP": "0 (no)"}
{"MOLECULE": "CCCC[C@H](NC[C@@H]1Cc2cccc(c2)CCCCc2cc(cc(N(CCC)S(C)(=O)=O)c2)C(=O)N1)C(=O)NCC(C)C", "GROUP": "0 (no)"}
{"MOLECULE": "N#Cc1ccc2[nH]c(-c3ccc(F)cc3)c(CCCC(=O)NS(N)(=O)=O)c2c1", "GROUP": "1 (yes)"}
{"MOLECULE": "NC(=O)c1cncc(-c2ccc([C@H]3CC[C@H](CC(=O)O)CC3)cc2)c1", "GROUP": "1 (yes)"}

Moving on to another molecule below.
Does the molecule COc1ccc(-c2nc3c(NCCCN(C)C(=O)C4CCC4)c(Br)cnc3[nH]2)cc1 have recorded fraction unbound at 5 h that is 0.01 or more?
0 (no)
